# Target desc: T1, IFNγR1 fused to the constant region of the antibody IgG1 (UniProt P15260 18-245, limits assumed)
# T1 construct: also called IFNGR1; Interferon gamma receptor 1 fused to the Fc region; not shown: constant region (Fc) of IgG1, captured on the chip by an anti-human IgG antibody
# T1 sequence (looked up): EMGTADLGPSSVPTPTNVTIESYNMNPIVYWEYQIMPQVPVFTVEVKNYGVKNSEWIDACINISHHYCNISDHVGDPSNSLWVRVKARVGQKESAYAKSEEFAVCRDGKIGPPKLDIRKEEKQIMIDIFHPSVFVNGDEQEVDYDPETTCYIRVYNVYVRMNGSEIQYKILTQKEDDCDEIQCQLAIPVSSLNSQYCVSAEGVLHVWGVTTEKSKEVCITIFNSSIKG
# Procedure summary: SPR (Biacore, CM5 chip), IFNγR1-IgG1 Fc captured by anti-human IgG, analyte injected
Value kind: Kd (nM)
Quick note: give the figure in nM, leave out the unit.

Entry Compound 2, mono-mPEG-MAL-20K-rhIFN-γ-1b-M135C (ligand, Cys135 thioether-linked to linear mPEG-maleimide of about 20,000 daltons (mPEG-MAL-20K), succinimide ring closed, also called mPEG-MAL-20K-M135C-IFN-γ; M135C 20K linear) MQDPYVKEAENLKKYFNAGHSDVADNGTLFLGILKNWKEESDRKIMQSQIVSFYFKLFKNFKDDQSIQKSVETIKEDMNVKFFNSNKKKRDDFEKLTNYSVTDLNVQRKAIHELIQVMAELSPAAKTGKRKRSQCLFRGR has what Kd? 1.88
